# TGT: Ataxin-2 (Homo sapiens) (UniProt Q99700)
# Sequence (Q99700 whole entry): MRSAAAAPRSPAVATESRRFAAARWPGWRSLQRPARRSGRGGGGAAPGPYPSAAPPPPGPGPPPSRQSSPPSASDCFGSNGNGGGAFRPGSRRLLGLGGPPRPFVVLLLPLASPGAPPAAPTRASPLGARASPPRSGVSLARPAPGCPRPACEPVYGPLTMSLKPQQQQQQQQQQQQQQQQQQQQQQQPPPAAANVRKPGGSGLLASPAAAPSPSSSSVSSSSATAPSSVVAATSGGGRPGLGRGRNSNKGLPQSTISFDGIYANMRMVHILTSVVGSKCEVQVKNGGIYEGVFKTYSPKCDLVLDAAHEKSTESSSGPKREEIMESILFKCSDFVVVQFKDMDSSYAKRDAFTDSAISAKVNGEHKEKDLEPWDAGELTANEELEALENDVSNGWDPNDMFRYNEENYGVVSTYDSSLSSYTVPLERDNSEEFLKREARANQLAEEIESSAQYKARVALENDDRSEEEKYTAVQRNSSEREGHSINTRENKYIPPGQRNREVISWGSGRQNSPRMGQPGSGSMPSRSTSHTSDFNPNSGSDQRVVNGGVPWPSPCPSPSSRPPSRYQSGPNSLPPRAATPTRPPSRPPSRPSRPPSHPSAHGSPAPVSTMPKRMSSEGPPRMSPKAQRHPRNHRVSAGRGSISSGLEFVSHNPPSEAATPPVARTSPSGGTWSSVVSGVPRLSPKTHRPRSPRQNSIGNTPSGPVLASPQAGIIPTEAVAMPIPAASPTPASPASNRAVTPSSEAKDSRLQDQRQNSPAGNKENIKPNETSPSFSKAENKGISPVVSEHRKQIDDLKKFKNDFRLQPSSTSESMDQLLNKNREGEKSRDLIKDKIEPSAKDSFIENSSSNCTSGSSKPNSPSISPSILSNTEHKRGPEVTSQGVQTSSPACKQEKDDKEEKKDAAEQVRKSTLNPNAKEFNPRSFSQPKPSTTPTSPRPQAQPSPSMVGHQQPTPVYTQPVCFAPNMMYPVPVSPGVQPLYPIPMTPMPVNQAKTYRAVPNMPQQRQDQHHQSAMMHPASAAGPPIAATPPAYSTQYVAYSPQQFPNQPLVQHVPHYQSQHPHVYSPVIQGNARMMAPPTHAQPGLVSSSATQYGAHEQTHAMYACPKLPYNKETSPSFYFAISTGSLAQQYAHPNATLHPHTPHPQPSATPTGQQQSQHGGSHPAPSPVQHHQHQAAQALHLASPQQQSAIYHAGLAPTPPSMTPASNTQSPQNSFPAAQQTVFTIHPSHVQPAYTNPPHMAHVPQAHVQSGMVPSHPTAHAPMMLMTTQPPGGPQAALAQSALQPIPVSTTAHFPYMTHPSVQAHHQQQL
# ASSAY: qHTS for Inhibitors of ATXN expression.
# Assay type: functional
Hit rate of the full screen: of about 400,000 compounds, about 2,100 (0.53%) were called active. Another 14% or so got no clear call; they are omitted. No rule for the calls is given here. What follows is part of a selection rich in actives, with near analogues and random picks from the rest.
Allowed answers: Y = active, N = inactive

Worked set:
MOLECULE | TGT | ANSWER_LABEL
CCCOc1ccc(C2c3c(-c4ccccc4O)n[nH]c3C(=O)N2CCCOCC)cc1OCC (stereo not given) | Ataxin-2 (Homo sapiens) (UniProt Q99700) | Y
N#C/C(=C\c1c(Oc2ccc(Cl)cc2)nc2ccccn2c1=O)C(=O)NC1CCS(=O)(=O)C1 (stereo not given) | Ataxin-2 (Homo sapiens) (UniProt Q99700) | N
CCOc1ccccc1Oc1c[nH]nc1-c1ccc(OCC(=O)NN)cc1O | Ataxin-2 (Homo sapiens) (UniProt Q99700) | N
COc1cccc(C2=CC(c3ccc(OC)c(OC)c3OC)n3ncnc3N2)c1 (stereo not given) | Ataxin-2 (Homo sapiens) (UniProt Q99700) | N
CCOc1ccc(C2CC(c3c(O)oc4ccccc4c3=O)=NN2c2ccccc2)cc1OC (stereo not given) | Ataxin-2 (Homo sapiens) (UniProt Q99700) | N
Cc1ccc(-n2c(=O)c(C#N)cc3c(=O)n4ccccc4nc32)cc1C | Ataxin-2 (Homo sapiens) (UniProt Q99700) | N

# input Can you look up the reported call for Cc1cc(C)nc(SC2CC(=O)N(c3ccc(C)c(C)c3)C2=O)n1 (stereo not given) for me?
# output N

# input Can you look up the reported call for CCCOc1ccc(C2c3c(-c4ccccc4O)n[nH]c3C(=O)N2Cc2cccnc2)cc1 (stereo not given) for me?
# output Y

# input Can you look up the reported call for `O=c1oc2cc(O)ccc2cc1-c1nc2c(s1)CCc1ccccc1-2` for me?
# output N

# input Can you look up the reported call for `O=C(O)CCCC(=O)N1CCN(c2nc(-c3ccccc3)c3ccccc3n2)CC1` for me?
# output N
